- Procedure summary: yeast display, Sf9 membrane polyspecificity reagent, FACS + sequencing; frameworks hold sequencing errors
Endpoint name: polyreactivity (PSR sort gate)

Polymer sequence	Reported value
QVQLVESGGGLVQAGGSLRLSCAASGSPYQQYGMGWYRQAPGKERELVAAITFSDGNTYYADSVTGRFTISRDNAKNTVYLQMNSLKPEDTAVYYCNAGYSYGVSYAEGGYWGQGTQVTVSS	low polyreactivity
QVQLVESGGGLVKAGGSLRLICAASGSTFGGNDKGWYRHAPGKERELVDAISSGTSTNYADSVKGRFTISRDNAMNTVYLQMNSLKPEDTAVYYCNAGFWYRRTYDYWGQGTQVTVSS	low polyreactivity

----------
- Procedure summary: yeast display, Sf9 membrane polyspecificity reagent, FACS + sequencing; frameworks hold sequencing errors
Endpoint name: polyreactivity (PSR sort gate)

// below: answered sequences
Polymer sequence	polyreactivity (PSR sort gate)
QVQLVESGGGLVQAGGSIRLSCAASGSIYKYNAMGWYRQAPGKERELVAAISSGGSTNYADSVKGRFTISRDNAKNTVYLQMNSLKPEDTAVYYCAKDRRRWYYTRDYWGQGTQVTVSS	low polyreactivity
QVQLVESGGGLVQAGGSLRLSCAASGRIFRRNAMGWYRQAPGKERELVAAISTRGSSTYYADSVKGRFTISRDNAKNTVYLQMNSLKPEDTAVYYCAADAYFIYSRYWYDYWGQGTQVTVSS	high polyreactivity
QVQLVESGGGLVQAGGSLRLSCAASGRTFRRNAMGWYREAPGKERELVASINRGGGKNYADSVKGRFTISRDNAKNTVYLQMNSLKPEDTAVYYCAAVPIAADKANGYDYWGQGTQVTVSS	low polyreactivity
QVQLVESGGGLVQAGGSLRLSCAASGFTFRRYAMGWYRQAPGKERELVAVITTAGSTNYADSVKGRFTISRDNAKNTVYLQMNSLKPEDTAVYYCATDNGTRKRRYDYWGQGTQVTVSS	low polyreactivity

polyreactivity (PSR sort gate) for QVQLVESGGGLVQAGGSLRLSCAASGFIFGPYAMGWYRQAPGKERELVAAISRRGGSTYYADSVKGRFTISRDNAKNTVYLHMNSLKPEDTAVYYCATAGWGEAEGGYWGQGTQVTVSS ?
high polyreactivity

----------
- Procedure summary: yeast display, Sf9 membrane polyspecificity reagent, FACS + sequencing; frameworks hold sequencing errors
Endpoint name: polyreactivity (PSR sort gate)

Worked set:
Polymer sequence	polyreactivity (PSR sort gate)
QVQLVESGGGLVQAGGILRVSCAASGYTFLGYAMGWYRQPPGKEMELVAVISRTGGRTYYADSVKGRFTISRDNAKNTVYLQMNSLKPEDTAVYYCATEDYRGPEYDYWGQGTQVNVSS	high polyreactivity
QVQLVESGGGLGQAGGSLRLSCAASGSIRDSNAMGWYRQAPGKERELVAAITSGGSTYYADSVKGRFTISRDNAKNTVYLQMNSLKPEDTAVYYCAAAYLGYGAVQPSYEGGYWGQGTQVTVSS	low polyreactivity
QVQLVESGGGLVQAGGSLRLSCAASGFIFSYYAMGWYRQAPGKERELVAAITSSGGSTYYADSVKGRFTISRDNAKNTVYLHLNSLKPEDTAVYYCNAYVRRTRDYDYWGQGTQVTVSS	high polyreactivity
QVQLVESAGGLVQAGGSLRLSCPASGLTFGSYALGWYRQAPGKEREFVAAISWRGGSTYYADSVKGRFTISRDNAKNTVYLQMNSLKPEDTAVYYCAAPVTYGGSPYKYYYWGQGTQVTVSS	high polyreactivity
QVQLVESGGGLVQAGGSLRLSCAASGLIFSSYAMGWYRQAPGKERELVAAISRSGGRTYYADSVKGRFTISRDNAKNTVYLQMNSLKPEDTAVYYCAADRFRSGLDRPEMDYWGQGTQVTVSS	high polyreactivity
QVQLVESGGGLDQAGGSLRLRCAASGRNFRWYTMVWYRQAPGKEREFVAAITWSDTSTSYADSVKGRFTISRDNAKNTVYLQMNSLIPEYTAVYYCNAGDKVSSYWYDYWGQGTQVNVSS	low polyreactivity
QVQLVESGGGLVQAGGSLRLICDASGSIFRYYAMGWYRQAPGKERELVARISWRAGSTYADSVKGRFTISRDYAKNTVYLQINSQKPEDTAVYYCNADAHKDSWVGTSEYEYWGQGTQVTVSS	high polyreactivity
QVQLVESGGGLVQAGGILRLSCAASGRTFAYNTMGWYRQAPGKERQLVAAISSDGSTNYADSVKGRFTISRDNAKNTVYLQMNSLKPEDTAVYYCAKGEGTGTSDTQVYEHDYWGQGTQVTVSS	low polyreactivity
QVQLVESGGGLVQAGGRLRLSCSASGLTVYRKAMGWSRQAPGKEREMVAAITSSGGRTYYADSVKGRFTISRDNAKNTVYLLMNSLKAEDTALYYCAADFCLGYYYWGQGTQVTVSS	high polyreactivity
QVQLVESGGGLVQAGGSLRLSCDASGRTFGQNAMGWYRQAPGTERELVDAISASGSNTYYADSVKGRFTISRDNAKNTVYLQMNSLKPEDTAVYYCAKQVYRPGQQSRYDYWGQGTQVTVSS	low polyreactivity

Look up polyreactivity (PSR sort gate) for this sequence: QVQLVESGGGLVQAGGSLRLSCAASGLTIRRYVMGWYRQAPGKERELVAAINWNGGSTYYADSVKGRFTISRDNAKNTVYLQMNSLKPEDTAVYYCAARSTYVYDYNYWGQGTQVTVSS
high polyreactivity
